target: microtubular protein (tubulin) from pig brains (Sus scrofa, UniProt P02550+P02554); construct: microtubular protein was purified from pig brains via cydic assembling/disassembling; assay: Inhibition of tubulin polymerization (turbidimetry at 340 nm); settings: pig brain microtubular protein 1 mg/ml, 0.25 mmol GTP, 37° C.
Sequence (P02550 whole entry): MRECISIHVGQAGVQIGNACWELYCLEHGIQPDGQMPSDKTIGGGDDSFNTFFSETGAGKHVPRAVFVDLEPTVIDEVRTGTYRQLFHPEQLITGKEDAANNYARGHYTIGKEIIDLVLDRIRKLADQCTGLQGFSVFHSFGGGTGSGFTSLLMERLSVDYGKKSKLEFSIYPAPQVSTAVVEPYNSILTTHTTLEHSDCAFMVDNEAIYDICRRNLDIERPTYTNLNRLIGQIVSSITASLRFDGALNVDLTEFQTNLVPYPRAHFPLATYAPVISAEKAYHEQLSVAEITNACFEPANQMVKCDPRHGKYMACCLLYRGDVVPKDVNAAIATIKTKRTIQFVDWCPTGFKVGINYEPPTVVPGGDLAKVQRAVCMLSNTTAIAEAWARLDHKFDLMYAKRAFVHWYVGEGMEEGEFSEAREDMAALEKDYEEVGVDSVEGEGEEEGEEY
Sequence (P02554 whole entry): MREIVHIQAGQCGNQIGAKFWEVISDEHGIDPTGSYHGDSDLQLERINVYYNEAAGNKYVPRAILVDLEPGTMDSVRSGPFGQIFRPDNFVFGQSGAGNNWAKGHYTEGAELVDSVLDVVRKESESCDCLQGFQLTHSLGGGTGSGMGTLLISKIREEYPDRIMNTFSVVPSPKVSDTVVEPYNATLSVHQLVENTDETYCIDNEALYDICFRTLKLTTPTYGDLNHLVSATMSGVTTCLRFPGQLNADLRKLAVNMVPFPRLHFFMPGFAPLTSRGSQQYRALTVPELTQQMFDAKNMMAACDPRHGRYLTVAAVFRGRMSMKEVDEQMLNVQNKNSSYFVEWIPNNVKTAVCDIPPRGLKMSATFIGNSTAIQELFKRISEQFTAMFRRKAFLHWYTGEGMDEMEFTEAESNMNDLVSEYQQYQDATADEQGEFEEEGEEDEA

# compound, IC50
measured = [
    ("COc1cc2c(cc1O)CC[C@@H]1[C@@H]2CC[C@]2(C)[C@@H](O)CC[C@@H]12 [2-Methoxyestradiol, reference compound]", "2700 nM"),
    ("CC[C@]12CC[C@@H]3c4cc(OC)c(OS(N)(=O)=O)cc4CC[C@H]3[C@@H]1CC[C@@H]2O [(1)]", "500 nM"),
    ("CC[C@@]12CCC[C@H]1[C@@H]1CCc3cc(OS(N)(=O)=O)c(OC)cc3[C@H]1CC2 [(4)]", "1800 nM"),
]
